# GI50 annotations
- Test system: HCT-116
- testSummary: NCI tumour cell line growth inhibition, 48 h
Calls of active or inactive are those of the source. No stated cut-off is given here; in the data, active = GI50 up to about 1.1 µM and inactive = higher.

{"molecule": "COC1=CC2C(c3cc4ccccc4n3S(=O)(=O)c3ccccc3)CC1CN2C(=O)OCc1ccccc1 (stereo unspecified)", "GI50": "28.2 µM (inactive)"}
{"molecule": "CC(C)CCC[C@@H](C)[C@H]1CC[C@H]2[C@@H]3CC[C@H]4C[C@@H](CCC=C(c5cc(Cl)c(O)c(C(=O)O)c5)c5cc(Cl)c(O)c(C(=O)O)c5)CC[C@]4(C)[C@H]3CC[C@]12C", "GI50": "> 100 µM (inactive)"}
{"molecule": "Cc1cc(C)c(S(=O)(=O)N[C@@H](/C=C(\\Br)CO)C(C)C)c(C)c1", "GI50": "33.4 µM (inactive)"}
{"molecule": "N#Cc1nc(C2SCCCS2)oc1N", "GI50": "> 100 µM (inactive)"}
{"molecule": "CC1(O)CCn2c(=O)c3cc4ccccc4cc3c(=O)n2C1O (stereo unspecified)", "GI50": "> 100 µM (inactive)"}
{"molecule": "CC1=Nc2c(C#N)ncn2N=C(C)C1", "GI50": "> 100 µM (inactive)"}
{"molecule": "CCN(CC)c1ccc2c(c1)N=C1N=CC=CN1C2(c1ccc(N(C)C)cc1)c1ccc(N(C)C)cc1", "GI50": "3.85 µM (inactive)"}
{"molecule": "S=P(N1CC1)(N1CC1)N1CC1", "GI50": "116 µM (inactive)"}
{"molecule": "O=c1[nH]c(C2CCCCC2)nc2cc(Cl)ccc12", "GI50": "> 100 µM (inactive)"}
{"molecule": "C/C=C(/C)C(=O)O[C@H](C[C@@H](C)[C@H]1CC(c2ccoc2)OC1=O)[C@@]1(C)C(=O)CCC2O[C@]21C (stereo partly specified)", "GI50": "> 100 µM (inactive)"}
{"molecule": "O=C1CC(Cl)c2c(Cl)sc(Cl)c21 (stereo unspecified)", "GI50": "1.69 µM (inactive)"}
{"molecule": "C=CCNC(=O)/C=C\\C(=O)O", "GI50": "> 100 µM (inactive)"}
{"molecule": "COC(=O)c1ccccc1/N=C/c1ccc(N(CCC#N)S(=O)(=O)c2ccccc2)cc1", "GI50": "> 100 µM (inactive)"}
{"molecule": "O=C1CCCC1C(=O)Nc1ccc2ccccc2c1 (stereo unspecified)", "GI50": "> 100 µM (inactive)"}
{"molecule": "Cc1nc(C(N)=S)sc1C(/C=C/c1ccc(Cl)c(Cl)c1)=N/NC(C)(C)C", "GI50": "> 100 µM (inactive)"}
{"molecule": "Cc1ccc2ccccc2c1NC1=NCCO1", "GI50": "45.5 µM (inactive)"}
{"molecule": "CC1=NN(c2cccc(Cl)c2)C(=N/c2nc3ccccc3s2)/C1=C\\c1ccccc1O", "GI50": "26.7 µM (inactive)"}
{"molecule": "COc1ccc(S(=O)(=O)N2C(=O)CCC2C(=O)NC(N)=O)cc1 (stereo unspecified)", "GI50": "> 100 µM (inactive)"}
{"molecule": "COC(=O)C1=COC2OC3CC1C2C(C)O3 (stereo unspecified)", "GI50": "> 100 µM (inactive)"}
{"molecule": "COc1cc[n+](C)cc1", "GI50": "> 100 µM (inactive)"}
{"molecule": "Cc1nc2ccc(Cl)cc2c2c1CCN2c1ccccc1", "GI50": "3.61 µM (inactive)"}
{"molecule": "CN1N=C(Nc2ccccc2)Sc2c1cnn(-c1ccccc1)c2=O", "GI50": "> 100 µM (inactive)"}
{"molecule": "Nc1ncn(C2OC(COP(=O)(O)O)C(O)C2O)c(=O)n1 (stereo unspecified)", "GI50": "75.9 µM (inactive)"}
{"molecule": "O=C(Nc1ccc(Nc2ccc3c(c2)C(=O)c2ccccc2C3=O)c2c1C(=O)c1ccccc1C2=O)c1ccccc1", "GI50": "> 100 µM (inactive)"}
{"molecule": "Nc1nccc2c1ncn2[C@H]1C[C@H](O)[C@@H](CO)O1", "GI50": "> 100 µM (inactive)"}
{"molecule": "COCOc1ccc(Cn2c(=O)n(C)c(=O)c3c2ncn3C)cc1[N+](=O)[O-]", "GI50": "> 100 µM (inactive)"}
